Tested on: velvetleaf (Abutilon theophrasti)
assay: Test C greenhouse herbicide test, pre- and postemergence
Assay type: in vivo
measurement.conditions: Preemergence, 62 g ai/ha; scale 0 to 100, 0 is no effect, 100 is complete control
Known Plant response rating, Velvetleaf of a selection of molecules

// below: answered molecules
| molecule | Plant response rating, Velvetleaf |
| --- | --- |
| Cc1cc(C)c2sc(C)c(-c3c(O)c(C)nn(C)c3=O)c2c1 [Compound 2] | 95 |
| CC(=O)Oc1c(Cl)nn(C)c(=O)c1-c1c(C)sc2ccc(C(F)(F)F)cc12 [Compound 152] | 40 |
| Cc1ccc2sc(Br)c(-c3c(O)c(C)nn(C)c3=O)c2c1 [Compound 79] | 85 |
| Cc1nn(C)c(=O)c(-c2c(C)sc3ccc(C(F)(F)F)cc23)c1O [Compound 121] | 75 |

As a next step, examine the molecule that follows.
Value lookup for Plant response rating, Velvetleaf; key = COC(=O)Oc1c(OC)nn(C)c(=O)c1-c1c(C)ccc2ccccc12 [Compound 136]
95

###

Test system: pigweed (Amaranthus retroflexus)
assay: Test D controlled growth environment herbicide test, pre- and postemergence
Format: in vivo
measurement.conditions: Postemergence, 31 g ai/ha; scale 0 to 100 (0 no effect, 100 complete control)
The following compounds are listed with their measured Pigweed plant response rating values.
// print number alone

Examples with their reported Pigweed plant response rating follow.
| compound | recorded.endpoint | numeric.value |
| --- | --- | --- |
| Cc1nn(C)c(=O)c(-c2ccc(F)c3ccccc23)c1O [Compound 41] | Pigweed plant response rating | 75 |
| CCc1sc2c(C)cc(C)cc2c1-c1c(O)c(C)nn(C)c1=O [Compound 57] | Pigweed plant response rating | 85 |
| CCCC(=O)Oc1c(C)nn(C)c(=O)c1-c1c(C)sc2ccc(C)cc12 [Compound 105] | Pigweed plant response rating | 85 |

Please give the measured Pigweed plant response rating for this compound: Cc1nn(C)c(=O)c(-c2c(C)sc3c(C)cc(Cl)cc23)c1O [Compound 35]
80

Now the compound Cc1nn(C)c(=O)c(-c2cccc3ccccc23)c1O [Compound 11]
35

Then what about the compound CC(=O)Oc1c(C)nn(C)c(=O)c1-c1c(C)sc2ccc(Cl)cc12 [Compound 108] ?
95

Another compound: Cc1nn(C)c(=O)c(-c2c(C)sc3ccc(Br)cc23)c1O [Compound 22]
85

###

Plant response rating, Barnyardgrass values for the compounds below.
Test system: barnyardgrass (Echinochloa crus-galli)
assay: Test E greenhouse herbicide test, pre- and postemergence
Format: in vivo
measurement.conditions: Preemergence, 125 g ai/ha; visual, scale 0 no effect to 100 complete control
API doc: respond with a numeric literal and nothing else, no unit.

| structure.smiles.string | Plant response rating, Barnyardgrass |
| --- | --- |
| Cc1ccc2ccccc2c1-c1c(O)c(I)nn(C)c1=O | 65 |

For the compound CCc1sc2c(C)cc(C)cc2c1-c1c(O)c(C)nn(C)c1=O , what Plant response rating, Barnyardgrass is on record?
75

Another compound to check: CCc1sc2ccc(C)cc2c1-c1c(O)c(C)nn(C)c1=O
50

Same thing, different compound: Cc1cc2ccccc2c(-c2c(O)c(C)nn(C)c2=O)c1C
35

###

Tested on: galium (catchweed bedstraw, Galium aparine)
assay: Test D controlled growth environment herbicide test, pre- and postemergence
Assay type: in vivo
measurement.conditions: Preemergence, 250 g ai/ha; scale 0 to 100, 0 no effect, 100 complete control
recorded.endpoint: Plant response rating, Galium
// keep it numeric: no unit symbol after the value

Below, 3 molecules whose answers are already recorded.
| structure.smiles.string | measured.on | Plant response rating, Galium |
| --- | --- | --- |
| Cc1cc2ccccc2c(-c2c(O)c(C)nn(C)c2=O)c1C | galium (catchweed bedstraw, Galium aparine) | 85 |
| Cc1ccc2sc(Br)c(-c3c(O)c(C)nn(C)c3=O)c2c1 | galium (catchweed bedstraw, Galium aparine) | 100 |
| CC(=O)Oc1c(C)nn(C)c(=O)c1-c1c(C)sc2ccc(Cl)cc12 | galium (catchweed bedstraw, Galium aparine) | 100 |

Name the reported Plant response rating, Galium value associated with the molecule CCCC(=O)Oc1c(C)nn(C)c(=O)c1-c1c(C)sc2ccc(C)cc12
100

###

Tested on: corn (Zea mays)
assay: Test A greenhouse herbicide test, pre- and postemergence
Format: in vivo
measurement.conditions: Postemergence, 500 g ai/ha; visual rating after approx. 10 d, 0 to 100 scale (0 no effect, 100 complete control)
recorded.endpoint: Plant response rating, Corn
Please respond with just the number, no unit label.

The following molecules have reported results that may help.
| structure.smiles.string | measured.on | numeric.value |
| --- | --- | --- |
| COC(=O)Oc1cnn(C)c(=O)c1-c1c(C)sc2ccccc12 | corn (Zea mays) | 70 |
| CCc1nn(C)c(=O)c(-c2c(C)oc3ccc(C)cc23)c1O | corn (Zea mays) | 0 |
| COC(=O)Oc1c(C)nn(C)c(=O)c1-c1ccc(F)c2ccccc12 | corn (Zea mays) | 30 |
| CCCC(=O)Oc1c(C)nn(C)c(=O)c1-c1c(C)sc2ccc(C)cc12 | corn (Zea mays) | 30 |
| Cc1ccc2c(-c3c(O)c(C)nn(C)c3=O)c(C)ccc2c1 | corn (Zea mays) | 20 |
| Cc1sc2ccc(C(F)(F)F)cc2c1-c1c(O)c(Cl)nn(C)c1=O | corn (Zea mays) | 30 |
| Cc1nn(C)c(=O)c(-c2c([N+](=O)[O-])ccc3ccccc23)c1O | corn (Zea mays) | 20 |
| Cc1ccc2ccccc2c1-c1c(OS(C)(=O)=O)cnn(C)c1=O | corn (Zea mays) | 0 |
| Cc1ccc2oc(C)c(-c3c(O)c(C(C)C)nn(C)c3=O)c2c1 | corn (Zea mays) | 0 |
| Cc1nn(C)c(=O)c(-c2ccc(Cl)c3ccccc23)c1OC(=O)C(F)(F)F | corn (Zea mays) | 40 |

Request the reported Plant response rating, Corn associated with CC(=O)Oc1c(Cl)nn(C)c(=O)c1-c1c(C)sc2ccc(C(F)(F)F)cc12
0

###

Tested on: wheat, spring (spring wheat, Triticum aestivum)
assay: Test D controlled growth environment herbicide test, pre- and postemergence
Type: in vivo
measurement.conditions: Preemergence, 62 g ai/ha; scale 0 to 100 (0 no effect, 100 complete control)
Listing of entries alongside the reported Plant response rating, Wheat, Spring.
Form rule: numeric answer, no unit written next to it.

Example entries and their recorded answers appear below.
| compound | Plant response rating, Wheat, Spring |
| --- | --- |
| Cc1ccc2sc(Br)c(-c3c(O)c(C)nn(C)c3=O)c2c1 [Compound 79] | 0 |
| Cc1ccc2sc(C)c(-c3c(OC(=O)OC(C)C)c(C)nn(C)c3=O)c2c1 [Compound 66] | 0 |
| CCc1sc2c(C)cc(C)cc2c1-c1c(O)c(C)nn(C)c1=O [Compound 57] | 5 |
| Cc1nn(C)c(=O)c(-c2cccc3ccccc23)c1O [Compound 11] | 15 |

Read the next record carefully.
Can you share its Plant response rating, Wheat, Spring? I mean this compound: CCc1sc2ccc(C)cc2c1-c1c(O)c(C)nn(C)c1=O [Compound 47]
5

###

Listed here are compounds together with their documented Plant response rating, Barley, Spring.
Tested on: barley, spring (spring barley, Hordeum vulgare)
assay: Test D controlled growth environment herbicide test, pre- and postemergence
Assay type: in vivo
measurement.conditions: Postemergence, 125 g ai/ha; visual rating on scale 0 (no effect) to 100 (complete control), 14 to 21 d

| structure.smiles.string | Plant response rating, Barley, Spring |
| --- | --- |
| Cc1cc(C)c2sc(C)c(-c3c(O)c(C)nn(C)c3=O)c2c1 | 5 |
| Cc1nn(C)c(=O)c(-c2ccc(F)c3ccccc23)c1O | 10 |
| CCc1sc2ccc(C)cc2c1-c1c(O)c(C)nn(C)c1=O | 0 |
| Cc1cc(C)c2ccccc2c1-c1c(O)c(C)nn(C)c1=O | 10 |
| Cc1ccc2ccccc2c1-c1c(OC(=O)OC(C)C)c(C)nn(C)c1=O | 10 |

Proceed to the following item.
// query Plant response rating, Barley, Spring value for entry Cc1nn(C)c(=O)c(-c2cccc3ccc(Br)cc23)c1O
10

###

Let's look at some molecules and their measured Oat, Wild plant response rating.
System: oat, wild (wild oat, Avena fatua)
assay: Test C greenhouse herbicide test, postemergence
Assay type: in vivo
measurement.conditions: Postemergence, 31 g ai/ha; 0 to 100 scale (0 no effect, 100 complete control)
// no unit, no text: just the number

Solved cases (3 shown):
| structure.smiles.string | measured.on | Oat, Wild plant response rating |
| --- | --- | --- |
| CCc1ccc2ccccc2c1-c1c(O)c(C)nn(C)c1=O | oat, wild (wild oat, Avena fatua) | 70 |
| Cc1cc2ccccc2c(-c2c(O)c(C)nn(C)c2=O)c1C | oat, wild (wild oat, Avena fatua) | 80 |
| Cc1cc(C)c2ccccc2c1-c1c(O)c(C)nn(C)c1=O | oat, wild (wild oat, Avena fatua) | 90 |

I am curious: what Oat, Wild plant response rating value has been reported for Cn1nc(Br)c(O)c(-c2cccc3ccccc23)c1=O ?
0

All figures here come from patent US10597388B2.
